System: MDA-MB-231
Assay Info: Antiproliferative activity against human MDA-MB-231 cells assessed as cell growth inhibition incubated for 72 hrs by MTT assay
Format: functional, cell-based
Condition Label: MDA-MB-231, 72 h
Measured Property: pIC50
One number for each entry, as −log10 of the molar value.

Some entries whose results are on file:
Cc1cc(C)c(CNC(=O)c2cc(-c3ccc(N4CCN(C(=O)CCCCCCCCc5cn(CCOCCOCCOCCOCCOCCOCCOCCNc6cccc7c6C(=O)N(C6CCC(=O)NC6=O)C7=O)nn5)CC4)nc3)cc3c2cnn3C(C)C)c(=O)[nH]1 (stereo not given) | 5.79
Cc1cc(C)c(CNC(=O)c2cc(-c3ccc(N4CCN(CCCCCCc5cn(CCOCCOCCOCCOCCOCCNc6cccc7c6C(=O)N(C6CCC(=O)NC6=O)C7=O)nn5)CC4)nc3)cc3c2cnn3C(C)C)c(=O)[nH]1 (stereo not given) | 5.77
CCN(c1cc(-c2ccc(N3CCN(C(=O)CCCCCCCCc4cn(CCOCCOCCOCCOCCOCCNc5cccc6c5C(=O)N(C5CCC(=O)NC5=O)C6=O)nn4)CC3)nc2)cc(C(=O)NCc2c(C)cc(C)[nH]c2=O)c1C)C1CCOCC1 (stereo not given) | 5.96

Next item in the queue.
Q: Bench note: what pIC50 did `CC[C@H](C)n1cc(C)c2c(C(=O)NCc3c(C)cc(C)[nH]c3=O)cc(-c3ccc(N4CCNCC4)nc3)cc21` show?
Ans: 4.89
